Provenance of the data: PubChem BioAssay AID1851

# System Under Test: Cytochrome P450 2C9 (Homo sapiens)
# Test Protocol: Cytochrome panel assay with activity outcomes
# Condition Label: recombinant CYP, pro-luciferin dealkylation, luminescence, p450-cyp2c9; series mostly up to 57.1 µM
Among all 16,000 compounds or so, about 4,000 (25%) were called active. About 26% were inconclusive and are not listed. The call rests on the fitted dose curve; in most records, active means well fitted curve in the direction sought with a large enough effect; inconclusive means small, poorly fitted or top-dose-only effect, or effect the other way; inactive means no such curve, though single readings can be large or run the other way. The list is a sample of the results.
Possible outcomes: active, inactive

{"columns": ["Structure", "Label"],
 "data": [
  ["CCc1nnc(NS(=O)(=O)c2ccc(N=Cc3c(C)[nH]n(-c4ccc(C)cc4)c3=O)cc2)s1", "active"],
  ["N=c1n(-c2ccccc2)c(O)cc(=O)n1-c1ccccc1", "inactive"],
  ["Cc1ccc(-n2[nH]c(C)c(C=Nc3ccc4[nH]c(=O)[nH]c4c3)c2=O)cc1C", "inactive"],
  ["Cc1cc(C)n(-c2ccc(F)cc2)c(=O)c1C(=O)O", "inactive"],
  ["CC(=O)c1c(O)c(C)c(-c2ccccc2)n(-c2ccccc2)c1=O", "active"],
  ["O=C(c1cccc(F)c1)N1CCC2(CC1)CN(Cc1ccccc1)C2", "inactive"],
  ["CCOC(=O)c1sc(=N)n(-c2ccc(OC)cc2)c1C", "active"],
  ["NC(N)=NC(=O)c1nc(Cl)c(N2CCCCCC2)nc1N", "inactive"],
  ["CCOc1ccccc1NC(=O)CCC(=O)O", "inactive"],
  ["CCOC(=O)c1nc(N)sc1C(=O)OCC", "inactive"],
  ["COc1ccc(-n2c(C)nn(C)c2=O)cc1", "inactive"],
  ["CC(C)Oc1cccc(-n2c(CCc3c[nH]c4ccc(Br)cc34)nc3ccccc3c2=O)c1", "inactive"]
]}

----------
# System Under Test: Cytochrome P450 2C9 (Homo sapiens) (UniProt P11712)
# Sequence (P11712 whole entry, looked up): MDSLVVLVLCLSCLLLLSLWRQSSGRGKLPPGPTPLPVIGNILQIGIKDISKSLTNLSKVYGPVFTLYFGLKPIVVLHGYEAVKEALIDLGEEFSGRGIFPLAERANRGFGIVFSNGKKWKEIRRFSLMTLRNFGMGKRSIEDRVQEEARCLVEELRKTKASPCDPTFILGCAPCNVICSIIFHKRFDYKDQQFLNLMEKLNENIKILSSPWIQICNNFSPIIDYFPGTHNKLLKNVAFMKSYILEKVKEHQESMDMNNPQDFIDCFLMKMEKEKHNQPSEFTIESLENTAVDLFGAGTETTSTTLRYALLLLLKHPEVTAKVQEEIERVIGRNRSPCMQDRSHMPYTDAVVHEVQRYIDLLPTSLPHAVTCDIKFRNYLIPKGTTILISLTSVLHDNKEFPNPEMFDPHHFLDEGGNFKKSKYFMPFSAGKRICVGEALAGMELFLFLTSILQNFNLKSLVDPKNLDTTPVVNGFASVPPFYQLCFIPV
# Test Protocol: Cytochrome panel assay with activity outcomes
# Condition Label: recombinant CYP, pro-luciferin dealkylation, luminescence, p450-cyp2c9; series mostly up to 57.1 µM
About 4,000 (25%) of roughly 16,000 compounds were called active. Not shown: some 26% with an inconclusive outcome. The call rests on the fitted dose curve; in most records, active means well fitted curve in the direction sought with a large enough effect; inconclusive means small, poorly fitted or top-dose-only effect, or effect the other way; inactive means no such curve, though single readings can be large or run the other way. Not all results are given here.
Possible outcomes: 1 (yes) (active), 0 (no) (inactive)

{"columns": ["Compound", "Label"],
 "data": [
  ["O=c1ccn([C@@H]2O[C@@H](COP(=O)(O)OP(=O)(O)O)[C@H](O)[C@@H]2O)c(=O)[nH]1", "0 (no)"],
  ["CC(=O)NNC(=O)N1Cc2ccccc2Oc2ccc(Cl)cc21", "0 (no)"],
  ["CCOC(=O)N1CCC(NC(=O)CCC(=O)N2CC(C)Oc3ccc(C)cc32)CC1 (stereo not given)", "0 (no)"],
  ["COc1cccc(C2=CC(c3ccccc3)n3nnnc3N2)c1 (stereo not given)", "1 (yes)"],
  ["O=C(Nc1ccccc1)N1CCSc2cc(Cl)ccc21", "1 (yes)"]
]}

----------
# System Under Test: Cytochrome P450 2C9 (Homo sapiens) (UniProt P11712)
# Test Protocol: Cytochrome panel assay with activity outcomes; on activity, negative = inhibition: on the % scale 0 is the no-effect control and ±100 the full control effect
# Condition Label: recombinant CYP, pro-luciferin dealkylation, luminescence, p450-cyp2c9; series mostly up to 57.1 µM
# Method: The P450 gene superfamily is involved in the metabolism and clearance of xenobiotics. This assay used various human CYP P450 isozymes to measure the dealkylation of various pro-luciferin substrates to luciferin. The luciferin is then measured by luminescence after the addition of a luciferase detection reagent. […] Inhibitors and some substrates limit the production of luciferin, and decrease measured luminescence. […] 8, Detection, 1 sec, ViewLux luminescent read […]
About 4,000 (25%) of roughly 16,000 compounds were called active. About 26% were inconclusive and are not listed. These entries were drawn from the full list.
Items are presented alongside their recorded activity, negative = inhibition.

{"columns": ["Structure", "activity, negative = inhibition"],
 "data": [
  ["NC(=O)c1ccccc1-c1nc(-n2ccnc2)c2ccccc2n1", "8.72% [at 2.29 µM] (inactive)"],
  ["CCCCNc1nc(SC)nc2nc[nH]c12", "-18.3% [at 11.4 µM] (inactive)"],
  ["COc1ccccc1CNc1ncncc1-c1ccccc1C(F)(F)F", "-18.6% [at 2.29 µM] (inactive)"],
  ["O=C(O)C[C@@H](C(=O)O)C1c2ccccc2-c2ccccc21", "-12.1% [at 11.4 µM] (inactive)"],
  ["C[C@H](C(=O)c1ccncc1)c1ccccn1", "-11.4% [at 11.4 µM] (inactive)"],
  ["Clc1ccccc1-c1ccc2ncnc(N3CCNCC3)c2c1", "-9.02% [at 2.29 µM] (inactive)"],
  ["CCN1C(=O)[C@H]2[C@H]3[C@H](O)[C@H](O)C/C(=N/O[C@@H]4O[C@@H](COC(C)=O)[C@@H](OC(C)=O)[C@@H](OC(C)=O)[C@H]4OC(C)=O)[C@@H]3CC[C@@H]2C1=O", "19.4% [at 11.4 µM] (inactive)"],
  ["Cc1noc(C)c1-c1nccc(N(C)Cc2ccco2)n1", "10.6% [at 2.29 µM] (inactive)"],
  ["NC1=N[C@H](c2ccc(Cl)cc2)N(c2ccc(S(=O)(=O)Nc3ncccn3)cc2)C(N)=N1", "14.6% [at 11.4 µM] (inactive)"],
  ["c1ccc(CCc2cccnc2)nc1", "-6.59% [at 11.4 µM] (inactive)"],
  ["CCOC(=O)N/N=C1/C[C@@H](O)[C@@H](O)[C@@H]2[C@@H]3C(=O)N(CC)C(=O)[C@H]3CC[C@@H]12", "9.77% [at 11.4 µM] (inactive)"],
  ["COc1cccc2c1C(=O)c1c(O)c3c(c(O)c1C2=O)C[C@@](O)(C(=O)CO)C[C@H]3O[C@H]1C[C@@H](N)[C@H](O)[C@@H](C)O1.[W]", "3.88% [at 11.4 µM] (inactive)"],
  ["CC(C)CSC[C@@H]1O[C@H](n2cnc3c(N)nccc32)[C@H](O)[C@@H]1O", "3.85% [at 11.4 µM] (inactive)"],
  ["COC(=O)C/C=C\\[C@@H](C)[C@@H](/C=N\\O[C@@H](C)CN1CCCCc2nc(C)c(C)cc21)NS(=O)(=O)c1ccc(C)cc1", "-13.5% [at 11.4 µM] (inactive)"],
  ["COc1ccccc1-c1cncnc1-n1ccnc1", "-14.3% [at 2.29 µM] (inactive)"],
  ["COC(=O)C/C=C1\\c2ccccc2[C@H](OC)[C@H]1C", "15.8% [at 11.4 µM] (inactive)"],
  ["O=C(Nc1cccc(Cl)c1)Nn1cnnc1", "8% [at 11.4 µM] (inactive)"],
  ["CN(Cc1ccco1)c1ncnc2ccc(-c3cccnc3)cc12", "-16.8% [at 2.29 µM] (inactive)"],
  ["c1cncc(CNc2ncn[nH]2)c1", "-1.61% [at 11.4 µM] (inactive)"],
  ["COC(=O)C/C=C\\[C@@H](C)[C@@H](/C=N\\O[C@@H](C)c1cn([C@H]2COC[C@H]2O)nn1)OC", "-15.9% [at 11.4 µM] (inactive)"]
]}
